Data provenance is patent US20230119539A1.

# procedure.text: pH stability of quenched linker-payloads in buffers (LCMS)
# Assay type: physicochemical
# recorded.conditions: pH 4.0, 1 Day, RT
assay.readout: percentage of the remaining compound (%)

molecule: CCCC1O[C@@H]2C[C@H]3[C@@H]4CCC5=CC(=O)C=C[C@]5(C)[C@H]4[C@@H](O)C[C@]3(C)[C@]2(C(=O)COCN(C)C(=O)CNC(=O)OCc2ccc(NC(=O)[C@H](CCCNC(N)=O)NC(=O)[C@@H](NC(=O)CCOCCOCCOCCOCCNC(=O)CCC(=O)N3Cc4ccccc4-c4c(nnn4CCOCCOCCOCCOCCC(=O)NCCS(=O)(=O)O)-c4ccccc43)C(C)C)cc2)O1 (stereo partly shown) [Q1L1-PII-8]
assay.readout: percentage of the remaining compound
observed: 100

molecule: CCCC1O[C@@H]2C[C@H]3[C@@H]4CCC5=CC(=O)C=C[C@]5(C)[C@H]4[C@@H](O)C[C@]3(C)[C@]2(C(=O)COC2CCCN2C(=O)CNC(=O)CCOCCOCCOCCOCCNC(=O)CCC(=O)N2Cc3ccccc3-c3c(nnn3CC3OC4OC5C(CO)OC(OC6C(CO)OC(OC7C(CO)OC(OC8C(CO)OC(OC9C(CO)OC(OC3C(O)C4O)C(O)C9O)C(O)C8O)C(O)C7O)C(O)C6O)C(O)C5O)-c3ccccc32)O1 (stereo partly shown) [Q2L6-PII-9]
assay.readout: percentage of the remaining compound
observed: 25

molecule: CC(C)[C@H](NC(=O)CCOCCOCCOCCOCCNC(=O)CCC(=O)N1Cc2ccccc2-c2c(nnn2CCOCCOCCOCCOCCC(=O)NCCS(=O)(=O)O)-c2ccccc21)C(=O)N[C@@H](CCCNC(N)=O)C(=O)Nc1ccc(COC(=O)NCC(=O)NCOCC(=O)[C@@]2(O)[C@H](C)C[C@H]3[C@@H]4CCC5=CC(=O)C=C[C@]5(C)[C@@]4(F)[C@@H](O)C[C@@]32C)cc1 [Q1L1-PI]
assay.readout: percentage of the remaining compound
observed: 100

molecule: CCCC1O[C@@H]2C[C@H]3[C@@H]4CCC5=CC(=O)C=C[C@]5(C)[C@H]4[C@@H](O)C[C@]3(C)[C@]2(C(=O)COCNC(=O)CNC(=O)CCC(=O)N2Cc3ccccc3-c3c(nnn3CC3OC4OC5C(CO)OC(OC6C(CO)OC(OC7C(CO)OC(OC8C(CO)OC(OC9C(CO)OC(OC3C(O)C4O)C(O)C9O)C(O)C8O)C(O)C7O)C(O)C6O)C(O)C5O)-c3ccccc32)O1 (stereo partly shown) [Q2L7-PII-1]
assay.readout: percentage of the remaining compound
observed: 100
